Biological target: RARγ ligand-binding domain (GST-RAR-γ-LBD) (Homo sapiens)
Construct: purchased Invitrogen
Sequence (P13631 185-419 limits assumed): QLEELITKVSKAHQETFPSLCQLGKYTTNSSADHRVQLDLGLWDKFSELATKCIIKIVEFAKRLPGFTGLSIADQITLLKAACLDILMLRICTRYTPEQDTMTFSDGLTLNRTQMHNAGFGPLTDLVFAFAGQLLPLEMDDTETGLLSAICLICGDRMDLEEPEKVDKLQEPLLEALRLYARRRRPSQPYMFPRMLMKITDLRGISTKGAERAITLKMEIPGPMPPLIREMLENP
Assay: LanthaScreen TR-FRET RARγ co-activator (receptor binding) assay
Type: biochemical
Details: estimated EC50, TR-FRET co-activator assay, 4 h incubation; read-out: EC50 (95% confidence range) RARγ
// reported pEC50 per item
The value called pEC50 is obtained by taking minus log10 of the concentration in mol/L.

>>> assay_result("Cc1sc(-c2ccc(C(=O)O)cc2)nc1-c1ccccc1")
6.96
>>> assay_result("CCOCCOc1nc(-c2ccc(C(=O)O)cc2)sc1C")
6.85
>>> assay_result("CCOC(=O)c1ccc(-c2nc(-c3ccccc3)c(C)s2)cc1")
6.42
>>> assay_result("Cc1sc(-c2ccc(C(=O)O)cc2)nc1-c1ccc2c(c1)C(C)(C)CCC2(C)C")
7.00

pEC50 in this record for CCOC(=O)c1ccc(-c2nc(-c3ccc4c(c3)C(C)(C)CCC4(C)C)c(C)s2)cc1 : 6.07
